- measurement protocol: Brain distribution study
- Format: in vivo, male C57BL/6 mice
- assay context: male, C57BL/6, mouse, brain, po, 20 mg/kg, PO 20 mg/kg, male C57BL/6 mice, 2 hr, N=3; read-out: brain Concentration, Mean
- Method: Compound KL50 dosing solution: 3.39% DMSO+96.61% (10% HP-β-CD in saline) at 2 mg/mL; • 1) Weigh 17.39 mg of compound KL50 into a clean tube. • 2) Add 0.295 mL DMSO into the tube containing the compound. • 3) Vortex the tube for 3 min and sonicate it for 4 min. • 4) Add 8.400 mL 10% HP-β-CD in saline into the tube and vortex the tube for 3 min. […]
quantity measured: concentration at 2 hr (ng/g)
Numbers only, in ng/g.

NC(=O)c1ncn2c(=O)n(CCF)nnc12 | 1140

Could you now consider this next compound?
What measured concentration at 2 hr goes with `CNC(=O)c1ncn2c(=O)n(CCF)nnc12` ? 197
